test: in vivo; conditions: single oral dose 80 Mg./Kg., mice
experimental.readout: Dead/Total

Use the examples below as a reference point.
[[record]]
compound = "CC(C)C(=O)Nc1cccc(C2CN3CCSC3=N2)c1.Cl (stereo not drawn)"
endpoint_value = "5/6"

[[record]]
compound = "CCC(=O)Nc1cccc(C2CN3CCSC3=N2)c1 (racemic)"
endpoint_value = "5/5"


Next, consider the following compound.
So, O=C(Nc1cccc(C2CN3CCSC3=N2)c1)c1ccccc1 (racemic) ? Its Dead/Total was 4/6

---

assay: in vivo; conditions: single oral dose 60 Mg./Kg., mice
experimental.readout: Dead/Total

Use the examples below as a reference point.
[[record]]
molecule = "CC(C)Nc1cccc(C2CN3CCSC3=N2)c1 (centres unmarked)"
endpoint_value = "3/6"

[[record]]
molecule = "CCC(=O)Nc1cccc(C2CN3CCSC3=N2)c1 (racemic)"
endpoint_value = "4/6"


Batch request: Dead/Total per item, same order as input.
1. CCCC(=O)Nc1cccc(C2CN3CCSC3=N2)c1 (racemic)
2. O=C(Nc1cccc(C2CN3CCSC3=N2)c1)c1ccccc1 (racemic)
3. Nc1ccc([N+](=O)[O-])c(C2CN3CCSC3=N2)c1 (centres unmarked)

4/5
3/6
0/6

---

test system: Nematospiroides dubius; test: Anthelmintic efficacy against N. dubius in mice, single oral dose; format: in vivo, Nematospiroides dubius (in albino female mice); details: Heligmosomoides polygyrus, po, single oral dose 10 mg./Kg., molar-adjusted; read-out: Percent Nematospiroides Activity
Counter-ions that a name gives are not always drawn.
Answer each item with its documented inhibition in vivo at 10 mg/kg.
Answers are plain numbers, in %.

[[record]]
compound = "O=C(Nc1cccc(C2CN3CCSC3=N2)c1)c1ccccc1 (racemic) [m-NH-CO dl]"
unit_abbrev = "%"
endpoint_value = 100

[[record]]
compound = "CC(C)(C)C(=O)Nc1cccc(C2CN3CCSC3=N2)c1 (stereo not drawn) [m-NH-CO-C(CH3)2 l]"
unit_abbrev = "%"
endpoint_value = 100

[[record]]
compound = "CC(=O)Nc1cccc(C2CN3CCSC3=N2)c1 (stereo not drawn) [HN--CO--CH3]"
unit_abbrev = "%"
endpoint_value = 100

[[record]]
compound = "CCCC(=O)Nc1cccc(C2CN3CCSC3=N2)c1 (racemic) [m-NH--CO--C3 H7n dl]"
unit_abbrev = "%"
endpoint_value = 100

[[record]]
compound = "O=CNc1cccc(C2CN3CCSC3=N2)c1 (stereo not drawn) [HNCHO l-]"
unit_abbrev = "%"
endpoint_value = 100


Batch request: inhibition in vivo at 10 mg/kg per item, same order as input.
1. Nc1ccc(Br)c(C2CN3CCSC3=N2)c1 (racemic) [R1 =H R4 =Br, dihydrochloride]
2. CC(C)(C)C(=O)Nc1cccc(C2CN3C=CSC3=N2)c1 (stereo not drawn) [5,6-dihydro HN-CO-C(CH3)3]
3. Nc1ccc([N+](=O)[O-])c(C2CN3CCSC3=N2)c1 (stereo not drawn) [R1 =H R4 =NO2]
4. c1ccc(CNc2cccc(C3CN4CCSC4=N3)c2)cc1 (stereo not drawn) [Table XII b1716]

[100, 80, 100, 91]

---

assay: in vivo; details: mouse, in vivo, po, Approx. LD50, mouse oral, Table IX
Structures can show the parent of a compound that is named as a salt.
experimental.readout: LD50 (mg/kg)
Numbers only, in mg/kg.

[[record]]
molecule = "CC(C)C(=O)Nc1cccc(C2CN3CCSC3=N2)c1 (centres unmarked) [m-NH--CO--CH(CH3)2 l]"
experimental_readout = "LD50"
endpoint_value = 50

[[record]]
molecule = "CCCC(=O)Nc1cccc(C2CN3CCSC3=N2)c1 (racemic) [m-NH--CO--C3 H7n dl]"
experimental_readout = "LD50"
endpoint_value = 40

[[record]]
molecule = "Nc1ccc(Br)c(C2CN3CCSC3=N2)c1 (racemic) [R1 =H R4 =Br, dihydrochloride]"
experimental_readout = "LD50"
endpoint_value = 40

[[record]]
molecule = "CC(C)(C)C(=O)Nc1cccc(C2CN3CCSC3=N2)c1 (centres unmarked) [m-NH-CO-C(CH3)2 l]"
experimental_readout = "LD50"
endpoint_value = 100

[[record]]
molecule = "COC(=O)Nc1cccc(C2CN3CCSC3=N2)c1 (racemic) [m-NH-CO-OCH3 dl, hydrochloride]"
experimental_readout = "LD50"
endpoint_value = 150

[[record]]
molecule = "O=C(Nc1cccc(C2CN3CCSC3=N2)c1)c1ccccc1 (racemic) [m-NH-CO dl]"
experimental_readout = "LD50"
endpoint_value = 60

[[record]]
molecule = "CCC(CC)C(=O)Nc1cccc(C2CN3CCSC3=N2)c1 (racemic) [m-NH-CO-CH(C2 H5)2 dl]"
experimental_readout = "LD50"
endpoint_value = 160

[[record]]
molecule = "Nc1ccc([N+](=O)[O-])c(C2CN3CCSC3=N2)c1 (centres unmarked) [R1 =H R4 =NO2]"
experimental_readout = "LD50"
endpoint_value = 120

[[record]]
molecule = "CC(C)(C)C(=O)Nc1cccc(C2CN3CCSC3=N2)c1 (racemic) [m-NH--CO--C(CH3)3 dl]"
experimental_readout = "LD50"
endpoint_value = 100

[[record]]
molecule = "Cl.Cl.Nc1cccc(C2CN3C=CSC3=N2)c1 (stereo not drawn) [5,6-dihydro m-NH2 dl]"
experimental_readout = "LD50"
endpoint_value = 10


Batch request: LD50 per item, same order as input.
1. CNc1cccc(C2CN3CCSC3=N2)c1.Cl.Cl (stereo not drawn) [m-NH--CH3 dl]
2. Cl.Cl.Nc1cccc(C2CN3CCSC3=N2)c1 (racemic) [dl-m-aminotetramisole]
3. O=CNc1cccc(C2CN3CCSC3=N2)c1 (racemic) [m-NH--HCO dl]

100
15
30

So, Nc1cccc(C2CN3CCSC3=N2)c1 (centres unmarked) [m-NH2 l] ? Its LD50 was 15

---

experiment: in vivo; settings: single oral dose 50 Mg./Kg., mice
Counter-ions that a name gives are not always drawn.
experimental.readout: Dead/Total

Use the examples below as a reference point.
[[record]]
compound = "CNc1cccc(C2CN3CCSC3=N2)c1.Cl.Cl (stereo not drawn)"
experimental_readout = "Dead/Total"
endpoint_value = "0/4"

[[record]]
compound = "CC(C)(C)C(=O)Nc1cccc(C2CN3CCSC3=N2)c1 (racemic) [m-NH--CO--C(CH3)3 dl]"
experimental_readout = "Dead/Total"
endpoint_value = "0/6"

[[record]]
compound = "CC(C)(C)C(=O)Nc1cccc(C2CN3CCSC3=N2)c1 (stereo not drawn) [m-NH-CO-C(CH3)2 l]"
experimental_readout = "Dead/Total"
endpoint_value = "0/6"

[[record]]
compound = "COC(=O)Nc1cccc(C2CN3CCSC3=N2)c1 (stereo not drawn) [m-NH-CO--OCH3 l, hydrochloride]"
experimental_readout = "Dead/Total"
endpoint_value = "0/5"

[[record]]
compound = "COC(=O)Nc1cccc(C2CN3CCSC3=N2)c1 (racemic) [m-NH-CO-OCH3 dl, hydrochloride]"
experimental_readout = "Dead/Total"
endpoint_value = "0/5"


So, CC(C)C(=O)Nc1cccc(C2CN3CCSC3=N2)c1 (stereo not drawn) ? Its Dead/Total was 2/8

---

assay: in vivo; settings: single oral dose 120 Mg./Kg., mice
experimental.readout: Dead/Total

Use the examples below as a reference point.
[[record]]
molecule = "Nc1ccc([N+](=O)[O-])c(C2CN3CCSC3=N2)c1 (stereo not shown) [R1 =H R4 =NO2]"
experimental_readout = "Dead/Total"
endpoint_value = "2/6"

[[record]]
molecule = "CC(C)C(=O)Nc1cccc(C2CN3CCSC3=N2)c1.Cl (stereo not drawn) [m-NH--CO--CH(CH3)2 dl]"
experimental_readout = "Dead/Total"
endpoint_value = "6/6"

[[record]]
molecule = "O=C(Nc1cccc(C2CN3CCSC3=N2)c1)c1ccccc1 (racemic) [m-NH-CO dl]"
experimental_readout = "Dead/Total"
endpoint_value = "5/6"


So, CCC(CC)C(=O)Nc1cccc(C2CN3CCSC3=N2)c1 (racemic) [m-NH-CO-CH(C2 H5)2 dl] ? Its Dead/Total was 0/6

---

assay: in vivo; settings: chemotherapeutic index, mouse oral, N. dubius, Table IX
Counter-ions that a name gives are not always drawn.
experimental.readout: Approx. LD50 /ED50
One number for each entry.

Use the examples below as a reference point.
[[record]]
compound = "CCCC(=O)Nc1cccc(C2CN3CCSC3=N2)c1 (racemic) [m-NH--CO--C3 H7n dl]"
endpoint_value = 20

[[record]]
compound = "Nc1cccc(C2CN3CCSC3=N2)c1 (centres unmarked) [m-NH2 l]"
endpoint_value = 20

[[record]]
compound = "CC(C)C(=O)Nc1cccc(C2CN3CCSC3=N2)c1.Cl (stereo not drawn) [m-NH--CO--CH(CH3)2 dl]"
endpoint_value = 20


Batch request: Approx. LD50 /ED50 per item, same order as input.
1. COC(=O)Nc1cccc(C2CN3CCSC3=N2)c1 (centres unmarked) [m-NH-CO--OCH3 l, hydrochloride]
2. CCC(=O)Nc1cccc(C2CN3CCSC3=N2)c1 (racemic) [m-NH--CO--C2 H5 dl]

1: 20; 2: 20
